Target: human Cot catalytic domain (30-397 amino acids) (Homo sapiens, UniProt P41279)
Construct: Purified recombinant human Cot catalytic domain (30-397 amino acids) was purchased from Cama Biosciences; purchased Cama Biosciences (so in the source)
Sequence (P41279 30-397): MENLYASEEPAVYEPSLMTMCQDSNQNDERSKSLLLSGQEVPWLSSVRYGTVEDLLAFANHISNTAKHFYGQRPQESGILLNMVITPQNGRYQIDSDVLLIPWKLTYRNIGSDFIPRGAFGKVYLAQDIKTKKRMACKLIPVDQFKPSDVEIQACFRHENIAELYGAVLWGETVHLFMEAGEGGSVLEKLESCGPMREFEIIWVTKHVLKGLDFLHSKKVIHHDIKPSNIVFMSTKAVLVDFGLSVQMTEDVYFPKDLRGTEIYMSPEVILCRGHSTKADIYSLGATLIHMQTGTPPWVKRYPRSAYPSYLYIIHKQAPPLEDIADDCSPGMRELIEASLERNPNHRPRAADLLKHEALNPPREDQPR
Test: High Throughput Cot Biochemical Assay (KinEASE TR-FRET)
Settings: Cot biochemical HTRF (KinEASE TR-FRET) assay; read-out: IC50 HTRF
READOUT: pIC50
Please express pIC50 as -log10 of the molar concentration.

Examples from the recorded data:
[
  {
    "COMPOUND": "CC1(CNc2c(C#N)cnc3c(Cl)cc(N[C@@H](c4ccccc4)c4cn(C5CCN(C(C)(C)C)CC5)nn4)cc23)COC1",
    "pIC50": 7.01
  },
  {
    "COMPOUND": "CC[C@@H](Nc1c(C#N)cnc2c(Cl)cc(N[C@H](c3cn(CCF)nn3)c3ccccc3F)cc12)c1ccccc1",
    "pIC50": 7.96
  },
  {
    "COMPOUND": "CN(C)C(=O)c1cccc([C@H](Nc2cc(Cl)c3ncc(C#N)c(Nc4cccc(Cl)c4F)c3c2)c2cn(C3CCN(C(C)(C)C)CC3)nn2)c1",
    "pIC50": 9.00
  },
  {
    "COMPOUND": "C[C@@H](Nc1c(C#N)cnc2c(Cl)cc(N[C@@H](c3ccccc3)c3cn(C4CCN(C(C)(C)C)CC4)nn3)cc12)c1ccccc1",
    "pIC50": 8.15
  },
  {
    "COMPOUND": "CC(C)(C)N1CCC(n2cc([C@@H](Nc3cc(Cl)c4ncc(C#N)c(Nc5cccc(Br)c5)c4c3)c3ccc(Cl)cc3)nn2)CC1",
    "pIC50": 7.39
  }
]

Query (compound): N#Cc1cnc2c(Cl)cc(NC(c3ccc(F)cc3)c3cscn3)cc2c1Nc1ccc(F)c(Cl)c1 (stereo not drawn) ; field requested: pIC50
6.07

Query (compound): CC[C@@H](Nc1c(C#N)cnc2c(Cl)cc(N[C@@H](c3cccc(N(C)C(C)=O)c3)c3cn(C4CCN(C(C)(C)C)CC4)nn3)cc12)c1ccccc1 ; field requested: pIC50
9.00

Query (compound): C[C@@H](Nc1c(C#N)cnc2c(Cl)cc(N[C@@H](c3ccccc3)c3cn(C4CCN(C(C)(C)C)CC4)nn3)cc12)c1ccccc1F ; field requested: pIC50
7.80

Query (compound): CC(C)(C)N1CCC(n2cc([C@@H](Nc3cc(Cl)c4ncc(C#N)c(NCC5CC5)c4c3)c3ccc(Cl)cc3)nn2)CC1 ; field requested: pIC50
6.50

Query (compound): Cn1cnc(C(Nc2cc(Cl)c3ncc(C#N)c(Nc4ccc(F)c(Cl)c4)c3c2)c2ccccc2)c1 (stereo not drawn) ; field requested: pIC50
7.25

Query (compound): CC(C)(C)N1CCC(n2cc([C@@H](Nc3cc(Cl)c4ncc(C#N)c(Nc5cscc5Cl)c4c3)c3ccccc3)nn2)CC1 ; field requested: pIC50
7.08

Query (compound): N#Cc1cnc2c(Cl)cc(N[C@@H](c3ccccc3)c3c[nH]nn3)cc2c1Nc1ccc(F)c(Cl)c1 ; field requested: pIC50
7.55

Query (compound): N#Cc1cnc2c(Cl)cc(N[C@@H](c3ccc(F)cc3)c3c[nH]nn3)cc2c1NCc1cccs1 ; field requested: pIC50
6.44
